Documented Binding Signal (fold over 6E7 parental antibody) across a set of binders
# Experimental System: T1, human TREM2 (triggering receptor expressed on myeloid cells 2) (human) (UniProt Q9NZC2)
# T1 sequence (looked up): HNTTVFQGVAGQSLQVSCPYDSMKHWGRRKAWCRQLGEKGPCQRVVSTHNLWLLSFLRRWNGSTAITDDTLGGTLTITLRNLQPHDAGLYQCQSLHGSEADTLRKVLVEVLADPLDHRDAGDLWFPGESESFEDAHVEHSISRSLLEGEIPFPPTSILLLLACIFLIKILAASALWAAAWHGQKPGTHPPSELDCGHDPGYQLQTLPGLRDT
# Method Description: 1st screen, 110 nM Ab
Reply numerically in fold, unit not repeated.

In the examples that follow, each entry is paired with its recorded Binding Signal (fold over 6E7 parental antibody).
| Binder | Experimental Value |
| --- | --- |
| 6E7 antibody affinity modulation variant V79 (antibody, V domains shown) VH: EVQLVQSGAEVKKPGESLKISCKGSGYSFTSYWIAWVRQMPGKGLEWMGIIYPGDSDTNYSPSFQGQVTISADKSISTAYLQWSSLKASDTAMYFCARQRTFYYDSSDYFDYWGQGTLVTVSS VL: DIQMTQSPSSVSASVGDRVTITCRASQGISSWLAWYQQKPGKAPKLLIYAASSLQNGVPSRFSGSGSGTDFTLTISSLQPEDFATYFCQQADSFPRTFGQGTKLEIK | 0.7 |
| 6E7 antibody affinity modulation variant V92 (antibody, V domains shown) VH: EVQLVQSGAEVKKPGESLKISCKGSGYSFTSYWIAWVRQMPGKGLEWMGIIYPGDSDTRYSPSFQGQVTISADKSISTAYLQWSSLKASDTAMYFCARQRTFHYDSSDYFDYWGQGTLVTVSS VL: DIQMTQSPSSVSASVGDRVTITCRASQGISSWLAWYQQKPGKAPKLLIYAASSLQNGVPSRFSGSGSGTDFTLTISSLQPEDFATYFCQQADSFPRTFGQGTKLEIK | 0.22 |

input: Returns the measured Binding Signal (fold over 6E7 parental antibody) for the input binder. Input: 6E7 antibody affinity modulation variant V90 (antibody, V domains shown) VH: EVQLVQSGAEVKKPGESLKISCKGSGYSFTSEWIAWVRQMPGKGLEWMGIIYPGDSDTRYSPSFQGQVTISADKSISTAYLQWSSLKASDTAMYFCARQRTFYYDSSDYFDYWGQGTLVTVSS VL: DIQMTQSPSSVSASVGDRVTITCRASQGISRWLAWYQQKPGKAPKLLIYAASSLQNGVPSRFSGSGSGTDFTLTISSLQPEDFATYFCQQADSFPRTFGQGTKLEIK
output: 0.33
